targetOrTestSystem: hGLP-1R (Homo sapiens, UniProt P43220)
Sequence (P43220 24-463): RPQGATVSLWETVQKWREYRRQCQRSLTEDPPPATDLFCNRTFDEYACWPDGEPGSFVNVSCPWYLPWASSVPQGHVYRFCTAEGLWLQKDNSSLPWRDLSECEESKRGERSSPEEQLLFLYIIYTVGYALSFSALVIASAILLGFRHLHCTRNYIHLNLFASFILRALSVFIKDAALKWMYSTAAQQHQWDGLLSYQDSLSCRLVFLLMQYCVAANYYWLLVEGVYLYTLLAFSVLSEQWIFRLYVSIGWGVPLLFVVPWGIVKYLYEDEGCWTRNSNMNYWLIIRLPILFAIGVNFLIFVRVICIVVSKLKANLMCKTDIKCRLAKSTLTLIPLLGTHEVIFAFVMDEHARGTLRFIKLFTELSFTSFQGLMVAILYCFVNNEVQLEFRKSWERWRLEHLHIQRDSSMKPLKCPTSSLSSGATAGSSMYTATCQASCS
procedureText: Functional cAMP activation in the presence of 0.1% casein (no HSA);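 note: intracellular cAMP rise after 30 min at 37 °C read by HTRF, normalized between buffer only (0%) and maximal control ligand (100%), four-parameter variable-slope fit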
Type: cell-based
cond: in the presence of 0.1% casein (no HSA); geometric mean; read-out: Relative cAMP EC50, hGLP-1R
Starred links: 1 amine or outer side, 2 acyl side, 3 side chain; linkers in the order of their positions; H or OH if unused. Non-standard residues stand in square brackets, D forms with d. Groups on a side chain read outwards from the residue. No end group written: not given here. *: point of attachment. C18 diacid = O=C(O)CCCCCCCCCCCCCCCCC(=O)*; γGlu = O=C(O)[C@H](CCC(=O)[*:2])N[*:1]; αMe4Pal = C[C@](N)(Cc1ccncc1)C(=O)O; 4Pal = N[C@@H](Cc1ccncc1)C(=O)O; αMeL = CC(C)C[C@](C)(N)C(=O)O; Orn = NCCC[C@H](N)C(=O)O; AEEA = NCCOCCOCC(=O)O; Aib = CC(C)(N)C(=O)O
measure: EC50 (nM)

- substance: "H-Y[Aib]QGTFTSD[4Pal]SQ[αMeL]LDKK([AEEA-γGlu-C18 diacid])AQ[αMe4Pal]AFIEYLIE[Aib]GPSSGAPPPSGT-NH2 [Example 834]"
  measure: "EC50"
  endpointUnit: "nM"
  readoutValue: 2.64
- substance: "Y[Aib]QGTFTSDFS[Orn][αMeL]LDKK([AEEA-γGlu-C18 diacid])AQ[Aib]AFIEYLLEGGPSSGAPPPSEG-NH2 [Example 50]"
  measure: "EC50"
  endpointUnit: "nM"
  readoutValue: 4.65
- substance: "H-Y[Aib]QGTFTSDFS[Orn][αMeL]LDKK([AEEA-γGlu-C18 diacid])AQ[Aib]AFIEWLLEGGSSSGAPPPSGS-NH2 [Example 173]"
  measure: "EC50"
  endpointUnit: "nM"
  readoutValue: 2.32

---

targetOrTestSystem: hGcgR (Homo sapiens, UniProt P47871)
Sequence (P47871 26-477): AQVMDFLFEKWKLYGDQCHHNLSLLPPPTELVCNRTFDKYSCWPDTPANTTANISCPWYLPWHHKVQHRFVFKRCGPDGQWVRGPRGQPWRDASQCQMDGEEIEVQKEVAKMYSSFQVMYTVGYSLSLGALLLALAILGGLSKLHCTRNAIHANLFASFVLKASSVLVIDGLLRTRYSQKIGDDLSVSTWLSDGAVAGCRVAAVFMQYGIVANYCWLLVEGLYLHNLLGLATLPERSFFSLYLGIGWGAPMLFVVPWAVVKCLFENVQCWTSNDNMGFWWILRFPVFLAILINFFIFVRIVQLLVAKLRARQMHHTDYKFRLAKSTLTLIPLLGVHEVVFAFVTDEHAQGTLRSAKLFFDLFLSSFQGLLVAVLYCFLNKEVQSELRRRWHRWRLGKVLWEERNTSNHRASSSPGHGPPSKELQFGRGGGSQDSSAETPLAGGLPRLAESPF
procedureText: Functional cAMP activation in the presence of 0.1% casein (no HSA);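 note: intracellular cAMP rise after 30 min at 37 °C, read by HTRF against a cAMP standard curve, scaled from buffer only (0%) to maximal control ligand response (100%)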
Format: cell-based
cond: in the presence of 0.1% casein (no HSA); geometric mean; read-out: Relative cAMP EC50, hGcgR
Starred links: 1 amine or outer side, 2 acyl side, 3 side chain; linkers in the order of their positions; H or OH if unused. Non-standard residues stand in square brackets, D forms with d. Groups on a side chain read outwards from the residue. *: point of attachment. C20 diacid = O=C(O)CCCCCCCCCCCCCCCCCCC(=O)*; C18 diacid = O=C(O)CCCCCCCCCCCCCCCCC(=O)*; Phe(4-CN) = N#Cc1ccc(C[C@H](N)C(=O)O)cc1; αMePhe(2-F) = C[C@](N)(Cc1ccccc1F)C(=O)O; γGlu = O=C(O)[C@H](CCC(=O)[*:2])N[*:1]; αMe4Pal = C[C@](N)(Cc1ccncc1)C(=O)O; 4Pal = N[C@@H](Cc1ccncc1)C(=O)O; αMeL = CC(C)C[C@](C)(N)C(=O)O; Orn = NCCC[C@H](N)C(=O)O; AEEA = NCCOCCOCC(=O)O; Aib = CC(C)(N)C(=O)O
Listing of recorded EC50 by entry.

- substance: "H-Y[Aib]QGTFTSDFS[Orn][αMeL]LDKK([AEEA-γGlu-C20 diacid])AQ[Aib]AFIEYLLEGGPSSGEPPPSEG-NH2 [Example 59]"
  EC50 [nM]: 6.57
- substance: "H-Y[Aib]QGTFTSD[4Pal]SK[αMeL]LDKK([γGlu-γGlu-C18 diacid])AQ[Aib]AFIEYLIE[Aib]GPSSGAPPPSGSEE-NH2 [Example 905]"
  EC50 [nM]: 12.3
- substance: "H-Y[Aib]QGTFTSDFS[Orn][αMeL]LDKK([AEEA-AEEA-γGlu-C18 diacid])AQ[Aib]AFIEYLLE[Aib]GPSSGEPPPSGS-NH2 [Example 166]"
  EC50 [nM]: 3.82
- substance: "H-Y[Aib]QGTFTSD[4Pal]S[Orn][αMeL]LDKK([γGlu-γGlu-C18 diacid])AQ[αMe4Pal]AFIEYLIAGGPSSGEPPPSGTE-NH2 [Example 980]"
  EC50 [nM]: 2.41
- substance: "H-Y[Aib]QGT[αMePhe(2-F)]TSD[Phe(4-CN)]SILLDKQAQK([AEEA-AEEA-γGlu-C20 diacid])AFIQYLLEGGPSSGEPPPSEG-NH2 [Example 353]"
  EC50 [nM]: 11
- substance: "H-Y[Aib]QGTFTSD[4Pal]SQ[αMeL]LDKK([AEEA-γGlu-C18 diacid])AQ[αMe4Pal]AFIE[αMe4Pal]LIEGGPSSGAPPPSGS-NH2 [Example 948]"
  EC50 [nM]: 2.89
